Assay: NCI Yeast Anticancer Drug Screen. Data for the cln2 rad14 strain (AID 165);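 note: 0% = growth equal to vehicle treated cultures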
Details: S. cerevisiae cln2 rad14 strain, at 50.0 µM (retest, dose inferred, filed as 5.0)
This is part of a sample that, as a whole, favours compounds with a hit. Of some 79,000 tested, about 15% had one in any assay. Activity calls are given as the source filed them. Cut-off read from the data, not from the text of the source: active = growth inhibition above about 70%; inactive = the rest.
Hi there, use one of these labels in your reply, thanks! 1 = active, -1 = inactive

As a guide, the following entries are already answered.
Compound	Label
Cc1ccc2c(c1)C1(C)OC(C=CC1=O)O2 (stereo unspecified)	1
Clc1cc(Cl)c(Cl)nn1	-1
C/C(N=NC(=S)N1CCCCCC1)=C1\C=CC=CN1O	-1
O=[N+]([O-])c1cccc2nc3ccccc3c(NCCN(CCO)CCO)c12	1
CC(C)(C)c1ccc(-c2c3ccccc3cc3ccccc23)cc1	-1

In: Which outcome was entered for the compound `O=C(NNc1ccnc2cc(Cl)ccc12)/C(=C/c1ccc2c(c1)OCO2)NC(=O)c1ccccc1` in this test?
Out: -1

----------
Experiment: NCI Yeast Anticancer Drug Screen. Data for the rad50 strain (AID 155);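 note: 0% = growth of vehicle-only cultures of the same strain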
Conditions: S. cerevisiae rad50 strain growth inhibition; at 50.0 µM
This is part of a sample that, as a whole, favours compounds with a hit. Of some 79,000 tested, about 15% had one in any assay. Active and inactive are the calls of the source. Cut-off read from the data, not from the text of the source: active = growth inhibition above about 70%; inactive = the rest.
Hi there, use one of these labels in your reply, thanks! active, inactive

As a guide, the following entries are already answered.
Compound	Label
CCN1CCC(O)(c2ccc(Oc3ccccc3)cc2)C(C(=O)c2ccc(Oc3ccccc3)cc2)C1 (stereo unspecified)	inactive
O=Nc1ccc(C=C2C(=O)C=CC2=O)cc1	active
CC(=O)OC1CC2C(C)(C)C(=O)C=C[C@]2(C)C2CCC3(C)C(=CC(=O)C3c3ccoc3)[C@]12C (stereo partly specified)	inactive
N#CC1(C2SCCS2=O)C2=C(C(=O)c3ccccc3C2=O)N2CCCC21 (stereo unspecified)	active
COC(O)C(=O)c1c2c(cc3c1CCC3)CCCC2 (stereo unspecified)	active
CCCCCCCc1c(Cl)nc(Cl)nc1Cl	active
NCCCC(=O)O	inactive
O=C(/C=C/c1ccc(Cl)cc1)NC1C=Nc2ccc([N+](=O)[O-])cc2NC1=O (stereo unspecified)	active

In: Which outcome was entered for the compound c1ccc(C2=NC(c3ccccc3)=NS(S3=NC(c4ccccc4)=NC(c4ccccc4)=N3)=N2)cc1 (stereo unspecified) in this test?
Out: active

In: Which outcome was entered for the compound `Nc1ccc(Cc2ccc(Br)cc2)cc1` in this test?
Out: active

In: Which outcome was entered for the compound `Cc1ccnc2c1c(=O)c1ccccc1n2C` in this test?
Out: active

----------
Assay: NCI Yeast Anticancer Drug Screen. Data for the mlh1 rad18 strain (AID 175)
Settings: S. cerevisiae mlh1 rad18 strain growth inhibition; at 5.0 µM (retest, dose inferred, filed as 0.5)
Description: Growth inhibition of yeast strains with defined genetic alterations is measured as a screen for potential anti-cancer activity. Selected strains with alterations in DNA damage repair or cell cycle control were exposed to compounds and growth inhibition was measured relative to vehicle treated controls. The strain used in this assay is mlh1 rad18
The panel holds about 79,000 compounds, 15% with a hit somewhere; the sample as a whole holds those more often. Active and inactive are the calls of the source. Rule as the data show it: active = growth inhibition above about 70%; inactive = the rest.
Hi there, use one of these labels in your reply, thanks! active, inactive

As a guide, the following entries are already answered.
Compound	Label
ClCCCN(CCCCl)c1ccc(C=Nc2cccc(Cl)c2)cc1	inactive
CCSC1=C(C)C(=O)c2ccccc2C1=O	inactive
C/C(N=NC(=S)N1CCCCCC1)=C1\C=CC=CN1O	inactive
CC(c1ccccc1)c1ccc(O)cc1 (centres undefined)	inactive
O=C(c1ccco1)N(C(=S)N1CCN(c2ccccn2)CC1)C1CCCCC1	inactive
CCCCCCC(CCCCCCCCCCC(=O)OCC(CC)CC)OC(=O)CC (centres undefined)	inactive
CN=c1sc2nc(C#N)c(C#N)nc2n1C	inactive
O=C1/C(=C\c2ccc([N+](=O)[O-])cc2)Sc2scc(-c3ccc(O)c(O)c3)[n+]21	inactive
CCOc1ccc(N/N=C(\CCC(=O)O)C(=O)O)cc1	inactive
O=[N+]([O-])c1ccc2ccccc2c1O	inactive

Then this compound:
In: Which outcome was entered for the compound `NNc1c2ccccc2nc2ccccc12` in this test?
Out: inactive

These measurements were taken from PubChem BioAssay (NCI).
